Reported melting point values follow for various compounds
Parameter: melting point

• COc1ccc(-n2cnc3ccc(-c4nnc(SCc5ccc(OC)c(C(F)(F)F)c5)o4)cc32)cc1 = 163 to 164 °C
• O=C(CCl)c1ccc2c(c1)CCO2 = 85 to 87 °C
• CS(=O)(=O)Nc1cc(C(F)(F)F)ccc1-c1cc(Oc2ccc3cccnc3c2)ncn1 = 203 to 204 °C
• Clc1ccc2scc(Br)c2c1 = 85 to 86 °C
• Nc1ncccc1-c1nc2cc(Br)cnc2n1-c1ccc(CNC(=O)c2ccccc2)cc1 = 195 to 197 °C
• CCCCCCCN(CCN1CCN(CCSc2nc3cccc(C(=O)OC)c3o2)CC1)C(=O)Nc1c(C(C)C)cccc1C(C)C = 125 to 126 °C
• OC(c1ccc(F)cc1)(c1ncc[nH]1)c1ccc(Cl)cc1Cl (stereo unspecified) = 194 °C
• CC(=O)c1cc(N(C)C)ccc1NC(=O)c1cccc(OCc2ccccc2)c1 = 147 to 149 °C
• CCn1c(=O)c(C(=O)NCCOC)c(O)c2ccc(C)nc21 = 118 to 120 °C
• O=C(c1cc(Cl)ccc1NC(=O)C(Cl)(Cl)Cl)C1CCCCC1 = 93 to 93.5 °C
• COC(=O)CSCC(NC(=O)OC(C)(C)C)c1ccc(F)cc1 (stereo unspecified) = 61 to 62 °C
• C=CCNc1c(C(=O)OCC)cnc2cn(C(C)(C)OC)nc12 = 102 to 103 °C
• CCOC(=O)C1=CC2(CCC1S(=O)(=O)Nc1ccc(F)cc1Cl)OCCCO2 (stereo unspecified) = 120 to 121 °C
• CCOC(=O)c1nn(-c2ccccc2)c2c1CSc1ccccc1-2 = 139 to 141 °C
• COC(=O)[C@H](CC(C)C)NC(=O)[C@@H](CCSC)NC(=O)OC(C)(C)C = 61 to 64 °C
• CCc1nc2c(N)nc3cc(OCCCOc4ccc5c(c4)nc(N)c4nc(CC)sc45)ccc3c2s1 = 242 to 243 °C
• Cc1cc(-c2cnn3c(C(F)(F)F)cc(-c4ccc(Cl)cc4)nc23)cc(C)n1 = 256 °C
• CNC(=O)c1cccc(F)c1Nc1nc(Nc2ccc3c(c2)C(=O)NCCC3)ncc1Cl = 200 °C
• C[C@H](Nc1c(-c2c(F)cc(OCCCN(C)C)cc2F)c(Br)nc2ncnn12)C(F)(F)F = 40 to 42 °C
• Oc1ccc(-c2cccc(F)c2F)cc1 = 132 to 134 °C
• O=c1c2[nH]c(Cl)nc2n(CC2CC2)c(=O)n1CC1CC1 = 220 °C
• CCCCN(c1cccc(-c2ccnc3c([N+](=O)[O-])cnn23)c1)S(=O)(=O)c1ccc(OC)cc1 = 189 to 190 °C
• CCCOc1ccc(F)cc1-c1ccc(C(N)=O)c(=O)[nH]1 = 223 to 224 °C
• O=C(O)CCCCCNC(=O)Cc1ccsc1 = 78.6 to 79.5 °C
• CC(CC(=O)NC(C)(C)C#CCl)Oc1cncc(Cl)c1 (stereo unspecified) = 78 to 82 °C
• C=Cc1cc(C)cc(C)c1C1=C(O)C2(CCN(OC)CC2)N(OC2CCCO2)C1=O (stereo unspecified) = 132 to 135 °C
• O=C(O)COc1ccc2cc(-c3cnc(Cc4ccc5ccccc5c4)o3)ccc2c1 = 258 to 260 °C
• O=Cc1ccc2c(ccc3cc4ccccc4cc32)c1 = 144 to 145 °C
• CCOC(=O)CCc1ccc2c(c1)CC(NC(=O)OC(C)(C)C)CC2 (stereo unspecified) = 100 to 102 °C
• ON=Cc1c[nH]c2cccc(OCc3ccccc3)c12 = 206 to 210 °C
• COc1ccc(CN=Nc2c(O)c(O)c(N=NCc3ccc(OC)cc3)c3ccccc23)cc1 = 245 to 251 °C
• CC(C)[C@H](NC(=O)OCc1ccccc1)C(=O)NCc1ccccc1 = 174 °C
• CC(=O)OCC(COC(C)=O)OCn1cnc2c(=O)[nH]c(N)nc21 = 237 to 239 °C
• Fc1ccc2c(c1)N=C(N1CCNCC1)c1sccc1N2 = 165 to 167 °C
• CC(=O)OCCn1c(=O)oc(=O)c2ccccc21 = 128 to 131 °C
• O=C(O)c1ccnc(NC(=O)C(CS)Cc2ccccc2)c1 (stereo unspecified) = 234 to 236 °C
• CCCCOc1cc(/C=C(\OCC)C(=O)O)ccc1OCCc1ccc(NS(C)(=O)=O)cc1 = 141 °C
• Cc1cc(Cl)ccc1NC(=N)Nc1ncccc1OCc1c(F)cccc1Cl = 155 to 156 °C
• COCC(C1CC1)n1cc(Cl)nc(Nc2cc(C)c(OC(F)F)nc2C)c1=O (stereo unspecified) = 103 to 104 °C
• Cc1nc2n(C)nc(C)n2c(=O)c1CCO = 170 °C
• COC(=O)c1cc(-c2ccc(Cl)cc2)[nH]c1Cl = 228 to 232 °C
